System: HepG2
RUN DESCRIPTION: Reduction of glucose consumption in insulin-resistant human HepG2 cells at 10 uM after 24 hrs by glucose oxidase method in presence of 0.1 uM of insulin
Format: functional, cell-based
Calls of active or inactive are those of the source. No cut-off for these calls is given here.
Select the matching outcome among true (1) = active, false (0) = inactive

stdin: // param item: `O=C1NC(=O)C(=Cc2ccc(OC3CCN(c4ccc(C(F)(F)F)cn4)CC3)cc2)C(=O)N1` ; yields the recorded call
stdout: false (0)

stdin: // param item: `O=C1NC(=O)C(=Cc2ccc(OC3CCN(C(=O)c4cccc(C(F)(F)F)c4)CC3)cc2)C(=O)N1` ; yields the recorded call
stdout: true (1)

stdin: // param item: `COc1cc(OC2CCN(c3ncccc3C#N)CC2)cc(OC)c1C=C1C(=O)NC(=S)NC1=O` ; yields the recorded call
stdout: false (0)

stdin: // param item: `O=C1NC(=O)C(=Cc2ccc(OC3CCN(C(=O)c4ccc(OC(F)F)cc4)CC3)cc2)C(=O)N1` ; yields the recorded call
stdout: false (0)

stdin: // param item: `O=C1NC(=O)C(=Cc2ccc(OC3CCN(C(=O)c4cccnc4)CC3)cc2)C(=O)N1` ; yields the recorded call
stdout: false (0)

stdin: // param item: `O=C1NC(=O)C(=Cc2ccc(C(=O)N3CCC(Nc4cc([N+](=O)[O-])ccn4)CC3)cc2)C(=O)N1` ; yields the recorded call
stdout: false (0)

stdin: // param item: `O=C1NC(=O)C(=Cc2ccc(C(=O)NC3CCN(c4ccc([N+](=O)[O-])cn4)CC3)cc2)C(=O)N1` ; yields the recorded call
stdout: true (1)

stdin: // param item: `O=C1NC(=O)C(=Cc2ccc(OC3CCN(C(=O)c4cccc(Cl)n4)CC3)cc2)C(=O)N1` ; yields the recorded call
stdout: false (0)

stdin: // param item: `CS(=O)(=O)N(Cc1ccc(C=C2C(=O)NC(=O)NC2=O)cc1)C1CCN(C(=O)c2cccc(OC(F)(F)C(F)F)c2)CC1` ; yields the recorded call
stdout: false (0)

stdin: // param item: `O=C1NC(=O)C(=Cc2ccc(OC3CCN(C(=O)c4ccncc4)CC3)cc2)C(=O)N1` ; yields the recorded call
stdout: true (1)

stdin: // param item: `CS(=O)(=O)N(Cc1ccc(C=C2C(=O)NC(=O)NC2=O)cc1)C1CCN(c2ccc([N+](=O)[O-])cn2)CC1` ; yields the recorded call
stdout: false (0)

stdin: // param item: CN(CCOc1ccc(CC2SC(=O)NC2=O)cc1)c1ccccn1 (configuration not stated) [ROSIGLITAZONE] ; yields the recorded call
stdout: true (1)
